Measured values drawn from patent US10246456B2 for this set.

Measurement record for IRAK4 (Homo sapiens (Human), UniProt Q9NWZ3); quantity recorded: IC50.

Worked cases, IC50 given:
- molecule: "C[C@H](N)c1cccc(-c2cc(-c3ccsn3)c3cnn(-c4cccc(CO)n4)c3c2)n1"
  IC50: "< 100 nM"
- molecule: "CC(N)c1cccc(-c2cc(CO)c3cnn(-c4cccc(CO)n4)c3c2)n1 (centres unmarked)"
  IC50: "< 100 nM"
- molecule: "COCCOc1cc(-c2cccc(C3(N)CCC3)n2)cc2c1cnn2-c1cncc(CO)n1"
  IC50: "< 100 nM"
- molecule: "Cc1cccc(-n2ncc3ccc(-c4cccc([C@@H](C)N)n4)cc32)n1"
  IC50: "< 100 nM"

For the 4 molecules below, give their IC50 values.
1. C[C@H](N)c1cccc(-c2cc(-c3cc[nH]n3)c3cnn(-c4cccc(CO)n4)c3c2)n1
2. [2H][C@](N)(CCC)c1cccc(-c2ccc3cnn(-c4cccc(CO)n4)c3c2)n1
3. Cc1ccc(Cl)c(-n2ncc3ccc(-c4cncc(N)c4)cc32)n1
4. Cc1cccc(-n2ncc3ccc(-c4cccc(C(C)(C)N)n4)cc32)n1

Return:
1: < 100 nM; 2: < 100 nM; 3: 1000 to 10000 nM; 4: 100 to 1000 nM

====

Kindly supply the reported IC50 values for the records listed here.
# test system: IRAK4 (Homo sapiens (Human), UniProt Q9NWZ3)
# Sequence (Q9NWZ3 whole entry, species assumed): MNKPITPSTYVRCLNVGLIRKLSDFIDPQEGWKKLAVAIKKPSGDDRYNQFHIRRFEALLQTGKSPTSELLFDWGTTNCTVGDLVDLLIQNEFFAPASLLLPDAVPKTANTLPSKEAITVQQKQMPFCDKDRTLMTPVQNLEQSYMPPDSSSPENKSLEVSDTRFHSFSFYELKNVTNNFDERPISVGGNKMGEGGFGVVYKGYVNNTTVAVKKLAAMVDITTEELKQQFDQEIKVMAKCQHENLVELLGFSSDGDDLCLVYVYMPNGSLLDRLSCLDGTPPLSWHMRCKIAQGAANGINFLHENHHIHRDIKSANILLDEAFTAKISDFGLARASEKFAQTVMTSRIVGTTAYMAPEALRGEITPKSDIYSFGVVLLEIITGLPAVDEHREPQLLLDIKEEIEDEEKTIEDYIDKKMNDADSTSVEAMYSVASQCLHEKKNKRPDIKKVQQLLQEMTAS

Worked cases, IC50 given:
- compound: "CCC[C@H](N)c1cccc(-c2cc(N3CC(C(=O)O)C3)c3cnn(-c4cccc(CO)n4)c3c2)n1 [Example 348]"
  assay readout: "IC50"
  readout value: "< 100 nM"
- compound: "Cc1cccc(-n2ncc3c(O)cc(-c4cccc(C(C)N)n4)cc32)n1 (centres unmarked) [Example 250]"
  assay readout: "IC50"
  readout value: "< 100 nM"
- compound: "CCC[C@H](N)c1cccc(-c2cc(N3CCC(C(=O)O)C3)c3cnn(-c4cccc(CO)n4)c3c2)n1 (some centres unmarked) [Example 341]"
  assay readout: "IC50"
  readout value: "< 100 nM"
- compound: "Cc1cccc(-n2ncc3c(CO)cc(-c4cccc(C(C)N)n4)cc32)n1 (centres unmarked) [Example 114]"
  assay readout: "IC50"
  readout value: "< 100 nM"
- compound: "Cc1cc(C#N)cc(-n2ncc3ccc(-c4cncc(N)c4)cc32)n1 [Example 34]"
  assay readout: "IC50"
  readout value: "100 to 1000 nM"
- compound: "Cc1cccc(-n2ncc3ccc(-c4cccc(C(N)CCO)n4)cc32)n1 (centres unmarked) [Example 247]"
  assay readout: "IC50"
  readout value: "< 100 nM"

For the 2 compounds below, give their IC50 values.
1. Cc1cccc(-n2ncc3ccc(-c4cccc(C(N)C5CC5)n4)cc32)n1 (centres unmarked) [Example 131]
2. NCc1cncc(-c2ccc3cnn(-c4cccc(C(F)(F)F)n4)c3c2)n1 [Example 93]

Return:
1: < 100 nM; 2: 1000 to 10000 nM

====

Measurement record for IRAK4 (Homo sapiens (Human)); quantity recorded: IC50.

- compound: "Cc1cccc(-n2ncc3ccc(-c4cn(C)c(C(C)O)n4)cc32)n1 (centres unmarked) [Example 299]"
  IC50: "1000 to 10000 nM"
- compound: "Cc1cccc(-n2ncc3ccc(-c4cncc(N)c4C)cc32)n1 [Example 10]"
  IC50: "1000 to 10000 nM"
- compound: "Cc1cccc(-n2ncc3ccc(-c4ccc5c(n4)C(N)CCCC5)cc32)n1 (centres unmarked) [Example 308]"
  IC50: "100 to 1000 nM"
- compound: "CCCC(N)c1cccc(-c2ccc3cnn(-c4cccc(C(F)F)n4)c3c2)n1 (stereo in doubt) [Example 519]"
  IC50: "< 100 nM"
- compound: "C=C(C)C[C@H](N)c1cccc(-c2ccc3cnn(-c4cccc(CO)n4)c3c2)n1 [Example 436]"
  IC50: "< 100 nM"

For the 2 compounds below, give their IC50 values.
1. Cc1cc(-c2cc(-c3cccc([C@@H](N)CF)n3)cc3c2cnn3-c2cccc(CO)n2)nn1C [Example 391]
2. Cc1cnc(-c2cc(-c3cccc([C@H](C)N)n3)cc3c2cnn3-c2cccc(CO)n2)s1 [Example 372]

Return:
["< 100 nM", "< 100 nM"]

Enquiry: Using the record for NC1CCc2ccc(-c3ccc4cnn(-c5cccc(C(F)(F)F)n5)c4c3)nc21 (centres unmarked) [Example 62] , report its IC50.
Return: 1000 to 10000 nM

====

Kindly supply the reported IC50 values for the records listed here.
# test system: IRAK4 (Homo sapiens (Human), UniProt Q9NWZ3)

Worked cases, IC50 given:
- compound: "COCCOc1cc(-c2cccc([C@@H](N)CF)n2)cc2c1cnn2-c1cccc(CO)n1 [Example 594]"
  IC50: "< 100 nM"
- compound: "NC(=O)c1cc(-c2cncc(N)c2)cc2c1cnn2-c1cccc(C(F)(F)F)n1 [Example 52]"
  IC50: "< 100 nM"

For the 2 compounds below, give their IC50 values.
1. CCC[C@H](N)c1cccc(-c2cc(CO)c3cnn(-c4cccc(CO)n4)c3c2)n1 [Example 492]
2. Cc1cccc(-c2ncc3ccc(-c4cccc(N)c4)cn23)n1 [Example 42]

Return:
1. < 100 nM
2. < 100 nM

====

# test system: IRAK4 (Homo sapiens (Human))
Kindly supply the reported IC50 values for the records listed here.

- molecule: "CCC[C@H](N)c1cccc(-c2cc(OCCCO)c3cnn(-c4cccc(CO)n4)c3c2)n1 [Example 460]"
  test system: "IRAK4 (Homo sapiens (Human))"
  IC50: "< 100 nM"
- molecule: "Cc1cccc(-n2ncc3ccc(-c4ccnc(N)c4)cc32)n1 [Example 6]"
  test system: "IRAK4 (Homo sapiens (Human))"
  IC50: "100 to 1000 nM"
- molecule: "CC(N)c1cc(N)cc(-c2ccc3cnn(-c4cccc(C(F)(F)F)n4)c3c2)n1 (stereo not shown) [Example 270]"
  test system: "IRAK4 (Homo sapiens (Human))"
  IC50: "< 100 nM"

For the 3 molecules below, give their IC50 values.
1. Cc1cccc(-n2ncc3ccc(-c4cc(CN)ccn4)cc32)n1 [Example 5]
2. Nc1cncc(-c2ccc3cnn(-c4cccc(C(F)(F)F)n4)c3c2)c1 [Example 40]
3. CCC[C@H](N)c1cccc(-c2cc(COC)c3cnn(-c4cccc(CO)n4)c3c2)n1 [Example 495]

Return:
1. 1000 to 10000 nM
2. < 100 nM
3. < 100 nM

For the 2 molecules below, give their IC50 values.
1. COCC(N)c1cccc(-c2ccc3cnn(-c4cccc(CO)n4)c3c2)n1 (stereo not shown) [Example 543]
2. CCC[C@H](N)c1cccc(-c2cc([C@@H]3CC[C@@H](C)O3)c3cnn(-c4cccc(CO)n4)c3c2)n1 [Example 479]

Return:
1: < 100 nM; 2: < 100 nM

For the 7 molecules below, give their IC50 values.
1. NCc1cc(-c2cncc(N)c2)cc2c1cnn2-c1cccc(C(F)(F)F)n1 [Example 53]
2. C[C@H](N)c1cccc(-c2cc(-c3cccnn3)c3cnn(-c4cccc(CO)n4)c3c2)n1 [Example 394]
3. CC[C@H](N)c1cccc(-c2cc(OCCCOC)c3cnn(-c4cccc(CO)n4)c3c2)n1 [Example 457]
4. CC(N)c1cccc(-c2ccc3cnn(-c4nccc(C(F)(F)F)n4)c3c2)n1 (stereo not shown) [Example 297]
5. CCc1cccc(-n2ncc3ccc(-c4cccc(C(C)N)n4)cc32)n1 (stereo not shown) [Example 120]
6. NCc1nccc(-c2ccc3cnn(-c4cccc(C(F)(F)F)n4)c3c2)n1 [Example 95]
7. CCOc1cc(-c2cccc([C@@H](N)[C@@H](F)CC)n2)cc2c1cnn2-c1cccc(CO)n1 [Example 442]

Return:
100 to 1000 nM
< 100 nM
< 100 nM
< 100 nM
< 100 nM
1000 to 10000 nM
< 100 nM

Enquiry: Using the record for Cc1cccc(-n2cc3c(CN)cc(-c4cccc(C(C)N)n4)cc3n2)n1 (stereo not shown) [Example 215] , report its IC50.
Return: 1000 to 10000 nM

====

Measurement record for IRAK4 (Homo sapiens (Human), UniProt Q9NWZ3); quantity recorded: IC50.

Worked cases, IC50 given:
- compound: "Cc1cccc(-n2ncc3ccc(-c4cccc(C(C)N(C)C)n4)cc32)n1 (centres unmarked)"
  IC50: "0.1 to 1 µM"
- compound: "CC(N)c1cc(-c2ccc3cnn(-c4cccc(C(F)(F)F)n4)c3c2)ccn1 (centres unmarked)"
  IC50: "0.1 to 1 µM"
- compound: "Cc1cccc(-n2ncc3c(C(F)(F)F)cc(-c4cccc(C(C)N)n4)cc32)n1 (centres unmarked)"
  IC50: "0.1 to 1 µM"
- compound: "CCOc1cc(-c2cccc([C@@H](N)c3ccccc3)n2)cc2c1cnn2-c1cccc(CO)n1"
  IC50: "< 0.1 µM"

For the 4 compounds below, give their IC50 values.
1. CCC[C@@H](N)c1cccc(-c2ccc3cnn(-c4cccc(CO)n4)c3c2)n1
2. CCC[C@H](N)c1cccc(-c2cc(CN3CCOCC3)c3cnn(-c4cccc(CO)n4)c3c2)n1
3. CCC[C@H](N)c1cccc(-c2cc(N3CCC(O)C3)c3cnn(-c4cccc(CO)n4)c3c2)n1 (some centres unmarked)
4. Cc1cccc(-n2ncc3ccc(-c4cccc(CCC(F)(F)F)n4)cc32)n1

Return:
1. < 0.1 µM
2. < 0.1 µM
3. < 0.1 µM
4. 1 to 10 µM
